Biological target: T1, Sla1 SH3_3 domain (Sla1 residues 355-414) (Saccharomyces cerevisiae, UniProt P32790 355-414, RED-NHS dye label (in the MST))
T1 sequence: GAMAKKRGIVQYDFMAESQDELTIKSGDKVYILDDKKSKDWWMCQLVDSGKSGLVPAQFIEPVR
Assay: MST
property-measured: Kd (µM)
State just the number; it will be interpreted in µM.

Problem: Recorded Kd of PVSTPARTPARTPTP [Sla2:283-297 peptide] , please.
Solution: 81.2
